# Protocol Conditions: in 2-ethoxyethanol, 333.16 K
Recorded Endpoint: solubility (mole fraction)
// keep it numeric: no unit symbol after the value

QUERY: # input compound: COc1ccc(P(c2ccc(OC)cc2)c2ccc(OC)cc2)cc1 ; wanted: its solubility (mole fraction)
RESULT: 0.0311

QUERY: Item O=P1(Oc2ccccc2)OCC2(CO1)COP(=O)(Oc1ccccc1)OC2 (configuration not stated) has what recorded solubility (mole fraction)?
RESULT: 0.0122

====

# Protocol Conditions: in toluene, 333.15 K
Give measured solubility (mole fraction) for each item. Keep answers brief.
Could you respond with only the numeric value?

QUERY: Which value of solubility (mole fraction) has been reported for O=C(O)CCP(=O)(O)c1ccccc1 in the records?
RESULT: 0.00154

QUERY: Could you share which solubility (mole fraction) value was measured for COc1ccc(P(=O)(c2ccc(OC)cc2)c2ccc(OC)cc2)cc1 ?
RESULT: 0.00169

QUERY: Look up solubility (mole fraction) for this compound: COc1ccc(P(c2ccc(OC)cc2)c2ccc(OC)cc2)cc1
RESULT: 0.00145
